# system under test: Adenosine receptor A2a (Homo sapiens)
# Sequence (P29274 whole entry): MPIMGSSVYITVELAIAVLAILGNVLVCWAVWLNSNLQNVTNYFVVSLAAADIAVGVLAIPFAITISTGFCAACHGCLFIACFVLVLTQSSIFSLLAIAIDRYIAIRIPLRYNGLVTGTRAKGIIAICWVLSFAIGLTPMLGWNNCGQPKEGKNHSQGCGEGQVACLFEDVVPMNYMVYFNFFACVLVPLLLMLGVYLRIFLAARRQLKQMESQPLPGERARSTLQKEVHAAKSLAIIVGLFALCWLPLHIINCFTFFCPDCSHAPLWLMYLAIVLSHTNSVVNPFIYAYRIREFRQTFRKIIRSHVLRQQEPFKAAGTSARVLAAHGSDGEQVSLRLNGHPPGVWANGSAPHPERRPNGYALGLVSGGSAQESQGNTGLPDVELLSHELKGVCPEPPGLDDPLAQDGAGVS
# method summary: Antagonist activity at human adenosine A2A receptor expressed in HEK293 cell membranes assessed as decrease in CGS-21680-induced cAMP level pretreated for 15 mins followed by agonist addition for 30 mins
Class (required): determined from Ki; valid ranges are c1 (below 2 nM), c2 (2 nM to below 8 nM), c3 (8 nM or more)

Please review the following examples before continuing.
>  <compound>
COc1cnc(N2CCOCC2)c2sc(NC(=O)C(C)(C)Oc3cccc(F)c3)nc12

>  <group label>
c2

$$$$
>  <compound>
COc1ccc(N2CCOCC2)c2sc(NC(=O)C(C)(C)Oc3ccc4c(c3)OCO4)nc12

>  <group label>
c2

$$$$

Using the reported Ki, which band applies to CCN(CC)C1CCC(C)(C(=O)Nc2nc3c(OC)ccc(N4CCOCC4)c3s2)CC1 (centres undefined) ?
c1

Tag the class for `COc1ccc(N2CCOCC2)c2sc(NC(=O)C(C)(C)Oc3ccc(F)cc3F)nc12`
c2

Hello team, could you let me know which band the following compound falls into: `COc1cnc(N2CCOCC2)c2sc(NC(=O)C(C)(C)Oc3ccc(F)cc3F)nc12`
c3

====

# system under test: UniProtKB P29274
# method summary: Displacement of [3H]ZM241385 from human adenosine A2A receptor expressed in HEK293 cell membranes measured after 90 mins
Overview of recorded Ki for various molecules
Express the result in nM but write the number alone.

>  <structure smiles string>
COc1ccc(N2CCOCC2)c2sc(NC(=O)C(C)(C)Oc3cccc(F)c3)nc12

>  <system under test>
UniProtKB P29274

>  <Ki [nM]>
2.8

$$$$
>  <structure smiles string>
COc1cnc(N2CCOCC2)c2sc(NC(=O)C(C)(C)Oc3cccc(F)c3)nc12

>  <system under test>
UniProtKB P29274

>  <Ki [nM]>
14

$$$$
>  <structure smiles string>
COc1ccc(N2CCOCC2)c2sc(NC(=O)C(C)(C)Oc3ccc(F)cc3)nc12

>  <system under test>
UniProtKB P29274

>  <Ki [nM]>
13

$$$$
>  <structure smiles string>
COc1ccc(N2CCOCC2)c2sc(NC(=O)C(C)(C)Oc3ccc(C)cc3)nc12

>  <system under test>
UniProtKB P29274

>  <Ki [nM]>
5.4

$$$$

Continue with the next molecule.
State the recorded Ki for this entry: `COc1cnc(N2CCOCC2)c2sc(NC(=O)C(C)(C)Oc3ccc(Cl)cc3)nc12`
29

====

# method summary: Elimination half-life in Wistar rat at 3 mg/kg, iv by LC/MS/MS analysis
# Type: ADME, organism-based
# condition context: in vivo, read-out: beta t1/2 (converted)
observed property: half-life

>  <molecule>
COc1ccc(N2CCOCC2)c2sc(NC(=O)C(C)(C)Oc3ccc(F)cc3)nc12

>  <test value>
6.3 h

$$$$

Report half-life for COc1ccc(N2CCOCC2)c2sc(NC(=O)C3(C)CCC(C)(O)CC3)nc12 (stereo not given) please.
0.6 h

# half-life lookup, item CCN(CC)C1CCC(C)(C(=O)Nc2nc3c(OC)ccc(N4CCOCC4)c3s2)CC1 (stereo not given)
2.4 h

# input molecule: `COc1ccc(N2CCOCC2)c2sc(NC(=O)C(C)(C)Oc3ccc(F)c(F)c3)nc12` ; wanted: its half-life
5.5 h

Can you look up the measured half-life of `COc1cnc(N2CCOCC2)c2sc(NC(=O)C(C)(C)Oc3ccc(F)cc3)nc12` for me?
5.4 h
